Every entry's value here was drawn from ChEMBL document CHEMBL6087436.

System: Klebsiella pneumoniae
Test: Antibacterial activity against Klebsiella pneumoniae ATCC 700603 assessed as inhibition of bacterial growth incubated for 18 hrs by microbroth dilution assay
Format: functional
Where a SMILES comes first, the peptide text is derived from it. [ ]: non-standard residue; d: D form.

molecule: NCCCC[C@H](NC(=O)CNC(=O)[C@H]1CCCN1C(=O)[C@H](CCCCN)NC(=O)[C@H](Cc1c[nH]c2ccccc12)NC(=O)[C@H](CCCCN)NC(=O)[C@@H](N)Cc1c[nH]c2ccccc12)C(=O)N[C@@H](Cc1c[nH]c2ccccc12)C(=O)N[C@@H](CCCCN)C(=O)N[C@@H](Cc1c[nH]c2ccccc12)C(N)=O (H-WKWK[dP]GKWKW-NH2)
MIC: > 128 µM
--
molecule: CC[C@H](C)[C@H](N)C(=O)N[C@@H](CCCNC(=N)N)C(=O)N[C@H](C(=O)N[C@@H](CCCNC(=N)N)C(=O)N1CCC[C@@H]1C(=O)NCC(=O)N[C@@H](CCCNC(=N)N)C(=O)N[C@H](C(=O)N[C@@H](CCCNC(=N)N)C(=O)N[C@H](C(N)=O)[C@@H](C)CC)[C@@H](C)CC)[C@@H](C)CC
MIC: > 128 µM
--
molecule: N=C(N)NCCC[C@H](NC(=O)CNC(=O)[C@H]1CCCN1C(=O)[C@H](CCCNC(=N)N)NC(=O)[C@H](Cc1ccccc1)NC(=O)[C@H](CCCNC(=N)N)NC(=O)[C@@H](N)Cc1ccccc1)C(=O)N[C@@H](Cc1ccccc1)C(=O)N[C@@H](CCCNC(=N)N)C(=O)N[C@@H](Cc1ccccc1)C(N)=O
MIC: > 128 µM
--
molecule: C[C@@H](O)[C@H]1C(=O)N2C(C(=O)O)=C(SCCNC=N)C[C@H]12 [IMIPENEM ANHYDROUS]
MIC: < 1 µM
